Tested on: biotinyl-Trp-oxazolone
Method: self-aminoacylation, catalytic enhancement (BWO) (fold over background); higher = more active; k-Seq, kA / k0A0; sequences stand for … in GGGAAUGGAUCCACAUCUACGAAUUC…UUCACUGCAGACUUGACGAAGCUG
This sample holds only a part of the variants without activity.
Measured attribute: self-aminoacylation
Answer with a bare number; do not write a unit.

Look over these answered cases.
{"Seq": "ACACACUUCAAGCACUCGGUC [Fam1B.1 aminoacylation ribozyme variant]", "self-aminoacylation": 1.77}
{"Seq": "AUUACCAUGGUCACCGAGUGA [Fam2.1 aminoacylation ribozyme variant]", "self-aminoacylation": 8.6}
{"Seq": "AUCCACCUAGGUCAUCGGGUA [Fam2.2 aminoacylation ribozyme variant]", "self-aminoacylation": 26.5}

Entry AUUACCCUGGUCAUCGAUAGA [Fam2.1 aminoacylation ribozyme variant] , tested on biotinyl-Trp-oxazolone, has a reported self-aminoacylation of 1.23

Entry AAUACACUGGUCAUCGAGUGA [Fam2.1 aminoacylation ribozyme variant] , tested on biotinyl-Trp-oxazolone, has a reported self-aminoacylation of 6.47

Entry AAGUUUUCUGAUAGUCGCAAG [Fam3.1 aminoacylation ribozyme variant] , tested on biotinyl-Trp-oxazolone, has a reported self-aminoacylation of 1.81

Entry AAGUUUGCUAAUAGUCGCACC [Fam3.1 aminoacylation ribozyme variant] , tested on biotinyl-Trp-oxazolone, has a reported self-aminoacylation of 0.849

Entry AUUACCGUGGACAUCGAGUGA [Fam2.1 aminoacylation ribozyme variant] , tested on biotinyl-Trp-oxazolone, has a reported self-aminoacylation of 5.62

Entry AUUACCAUGGUCAUCCAGUGA [Fam2.1 aminoacylation ribozyme variant] , tested on biotinyl-Trp-oxazolone, has a reported self-aminoacylation of 8

====

Tested on: biotinyl-Met-oxazolone
Method: self-aminoacylation, catalytic enhancement (BMO) (fold over background); higher = more active; k-Seq, kA / k0A0; sequences stand for … in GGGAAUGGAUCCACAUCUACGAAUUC…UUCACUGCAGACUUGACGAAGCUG
This sample holds only a part of the variants without activity.
// map self-aminoacylation to label using class 1 (below 0.9), class 2 (0.9 to below 4), class 3 (4 or more)

Check out these entries, answers already filled in.
{"Seq": "AUUCACCUCGGUAAUCGGGUG [Fam2.2 aminoacylation ribozyme variant]", "Class label": "class 3"}
{"Seq": "AUUACCCUGGUCAUCGCGAGA [Fam2.1 aminoacylation ribozyme variant]", "Class label": "class 2"}
{"Seq": "AUUCACCUAGGUCCUCGGGCG [Fam2.2 aminoacylation ribozyme variant]", "Class label": "class 3"}

Attention now shifts to the item below.
Please indicate the class for AAGUUUGUUAGUAGUCGCAAG [Fam3.1 aminoacylation ribozyme variant] based on its self-aminoacylation. class 1

====

Test system: biotinyl-Phe-oxazolone
Method: self-aminoacylation, catalytic enhancement (BFO) (fold over background); higher = more active; k-Seq, kA / k0A0; sequences stand for … in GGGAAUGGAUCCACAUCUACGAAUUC…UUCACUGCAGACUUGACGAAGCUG
Fewer inactive variants are shown than the library holds.
Kind request: treat 0.9 as inclusive, so self-aminoacylation at 0.9 or higher is 1.0, anything lower is 0.0.

Has AUUACACUGGUCAUCGGGUGA [Fam2.1 aminoacylation ribozyme variant] a recorded self-aminoacylation greater than or equal to 0.9? 1.0

Has CCACACUGCAAGCAAUCGCUC [Fam1B.1 aminoacylation ribozyme variant] a recorded self-aminoacylation greater than or equal to 0.9? 1.0

====

Listing of entries alongside the reported self-aminoacylation.
Tested on: biotinyl-Ile-oxazolone
Method: self-aminoacylation, catalytic enhancement (BIO) (fold over background); higher = more active; k-Seq, kA / k0A0; sequences stand for … in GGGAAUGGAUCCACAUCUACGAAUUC…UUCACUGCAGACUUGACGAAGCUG
Fewer inactive variants are shown than the library holds.
Answer with a bare number; do not write a unit.

Look over these answered cases.
{"Seq": "CUUCACCUAGGUCAUCGGAUG [Fam2.2 aminoacylation ribozyme variant]", "Target entity": "biotinyl-Ile-oxazolone", "Measured attribute": "self-aminoacylation", "Data value": 1.06}
{"Seq": "CCACACUUCAAGCAUUCGUUC [Fam1B.1 aminoacylation ribozyme variant]", "Target entity": "biotinyl-Ile-oxazolone", "Measured attribute": "self-aminoacylation", "Data value": 0.852}
{"Seq": "AUUCACCUAGUUGAUCGGGUG [Fam2.2 aminoacylation ribozyme variant]", "Target entity": "biotinyl-Ile-oxazolone", "Measured attribute": "self-aminoacylation", "Data value": 2.5}
{"Seq": "AAGUUUGCUAAUUGUAGCAAG [Fam3.1 aminoacylation ribozyme variant]", "Target entity": "biotinyl-Ile-oxazolone", "Measured attribute": "self-aminoacylation", "Data value": 0.854}
{"Seq": "GUUCACCUAGGUCAUUGGGUG [Fam2.2 aminoacylation ribozyme variant]", "Target entity": "biotinyl-Ile-oxazolone", "Measured attribute": "self-aminoacylation", "Data value": 2.6}

The sequence listed as AAUACCCUGGUCAUCCAGUGA [Fam2.1 aminoacylation ribozyme variant] shows self-aminoacylation equal to 3.01

The sequence listed as AUUACGCUGGUCAUCGAGAGA [Fam2.1 aminoacylation ribozyme variant] shows self-aminoacylation equal to 1.21

The sequence listed as AAUCACCUAGAUCAUCGGGUG [Fam2.2 aminoacylation ribozyme variant] shows self-aminoacylation equal to 2.75

The sequence listed as AUUCACCUUGGUCAUCGGGUA [Fam2.2 aminoacylation ribozyme variant] shows self-aminoacylation equal to 2.5

====

System: biotinyl-Trp-oxazolone
Method: self-aminoacylation, catalytic enhancement (BWO) (fold over background); higher = more active; k-Seq, kA / k0A0; sequences stand for … in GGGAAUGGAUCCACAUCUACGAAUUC…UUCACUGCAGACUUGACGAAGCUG
This sample holds only a part of the variants without activity.
Kind request: treat 4 as inclusive, so self-aminoacylation at 4 or higher is fulfilled, anything lower is not fulfilled.

Check out these entries, answers already filled in.
{"Seq": "AUUACGCUGGUAAUCGAGUGA [Fam2.1 aminoacylation ribozyme variant]", "Target entity": "biotinyl-Trp-oxazolone", "Class label": "fulfilled"}
{"Seq": "AAGUUUGCUAAAAGUCGCCAG [Fam3.1 aminoacylation ribozyme variant]", "Target entity": "biotinyl-Trp-oxazolone", "Class label": "not fulfilled"}
{"Seq": "CUACUUCAAACAAUUGAUCUG [Fam1A.1 aminoacylation ribozyme variant]", "Target entity": "biotinyl-Trp-oxazolone", "Class label": "not fulfilled"}

Has CGACUUCAAACAAUUGGUCUG [Fam1A.1 aminoacylation ribozyme variant] a recorded self-aminoacylation greater than or equal to 4? not fulfilled

Has CCAUACAUCAAGCAAUCGGUC [Fam1B.1 aminoacylation ribozyme variant] a recorded self-aminoacylation greater than or equal to 4? not fulfilled

Has CUAUUUCAAACAAUCGGGCUG [Fam1A.1 aminoacylation ribozyme variant] a recorded self-aminoacylation greater than or equal to 4? not fulfilled

Has CUACUUCAAUCAAUCGGUCUG [Fam1A.1 aminoacylation ribozyme variant] a recorded self-aminoacylation greater than or equal to 4? fulfilled

Has AUUACACAGGUCAUCGAGUGA [Fam2.1 aminoacylation ribozyme variant] a recorded self-aminoacylation greater than or equal to 4? fulfilled

====

System: biotinyl-Met-oxazolone
Method: self-aminoacylation, catalytic enhancement (BMO) (fold over background); higher = more active; k-Seq, kA / k0A0; sequences stand for … in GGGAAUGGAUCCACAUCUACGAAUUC…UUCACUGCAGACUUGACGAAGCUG
Variants at the floor of the assay were thinned out.
Measured attribute: self-aminoacylation
Answer with a bare number; do not write a unit.

{"Seq": "CCACCCUUCAGGCAAUCGGUC [Fam1B.1 aminoacylation ribozyme variant]", "Target entity": "biotinyl-Met-oxazolone", "Data value": 1.57}
{"Seq": "CUACUUCGAACAAUCUGUCUG [Fam1A.1 aminoacylation ribozyme variant]", "Target entity": "biotinyl-Met-oxazolone", "Data value": 0.51}
{"Seq": "CCACACGUCUAGCAAUCGGUC [Fam1B.1 aminoacylation ribozyme variant]", "Target entity": "biotinyl-Met-oxazolone", "Data value": 0.9}
{"Seq": "CCACCCUUCAAGCAAUAGGUC [Fam1B.1 aminoacylation ribozyme variant]", "Target entity": "biotinyl-Met-oxazolone", "Data value": 0.575}
{"Seq": "AUUACCCUGCCCAUCGAGUGA [Fam2.1 aminoacylation ribozyme variant]", "Target entity": "biotinyl-Met-oxazolone", "Data value": 5.7}

The sequence listed as CCACACUACAAGCAAUGGGUC [Fam1B.1 aminoacylation ribozyme variant] shows self-aminoacylation equal to 0.778

The sequence listed as AUCACCCUGGUGAUCGAGUGA [Fam2.1 aminoacylation ribozyme variant] shows self-aminoacylation equal to 7.25

The sequence listed as AUUGAACUAGGUCAUCGGGUG [Fam2.2 aminoacylation ribozyme variant] shows self-aminoacylation equal to 4.33

The sequence listed as CCACACUUCAAGCAUUCGUUC [Fam1B.1 aminoacylation ribozyme variant] shows self-aminoacylation equal to 0.685

The sequence listed as CUACUUCAUAAAAUCGGUCUG [Fam1A.1 aminoacylation ribozyme variant] shows self-aminoacylation equal to 0.699

The sequence listed as AUCACCCUGGUCAUCGAGUAA [Fam2.1 aminoacylation ribozyme variant] shows self-aminoacylation equal to 3.93

The sequence listed as UUACCUCAAACAAUCGGUCUG [Fam1A.1 aminoacylation ribozyme variant] shows self-aminoacylation equal to 0.97

The sequence listed as AUUCUCCUAGGUCAUCGGGUG [Fam2.2 aminoacylation ribozyme variant] shows self-aminoacylation equal to 13

The sequence listed as UUUCACCUACGUCAUCGGGUG [Fam2.2 aminoacylation ribozyme variant] shows self-aminoacylation equal to 4.85

The sequence listed as AUUCACCUAGUUCACCGGGUG [Fam2.2 aminoacylation ribozyme variant] shows self-aminoacylation equal to 3.25

The sequence listed as CUAGUUCAAACAAUCCGUCUG [Fam1A.1 aminoacylation ribozyme variant] shows self-aminoacylation equal to 0.885

The sequence listed as CCCCACUUCAAGCAAUCCGUC [Fam1B.1 aminoacylation ribozyme variant] shows self-aminoacylation equal to 1

The sequence listed as AUUCACCUAGGUCAUAGGUUG [Fam2.2 aminoacylation ribozyme variant] shows self-aminoacylation equal to 0.846
